Measured max response values are reported for all entries that follow.
target: human CMKLR1 (Homo sapiens); construct: host or cells: HEK293A (Invitrogen), stably expressing human Gα15; assay: Ca2+ mobilization (CellLux imaging) agonist assay in HEK293A cells expressing CMKLR1 and Gα15; format: cell-based; conditions: Ca2+ mobilization, CMKLR1; decimal comma
Sequence (Q99788 whole entry): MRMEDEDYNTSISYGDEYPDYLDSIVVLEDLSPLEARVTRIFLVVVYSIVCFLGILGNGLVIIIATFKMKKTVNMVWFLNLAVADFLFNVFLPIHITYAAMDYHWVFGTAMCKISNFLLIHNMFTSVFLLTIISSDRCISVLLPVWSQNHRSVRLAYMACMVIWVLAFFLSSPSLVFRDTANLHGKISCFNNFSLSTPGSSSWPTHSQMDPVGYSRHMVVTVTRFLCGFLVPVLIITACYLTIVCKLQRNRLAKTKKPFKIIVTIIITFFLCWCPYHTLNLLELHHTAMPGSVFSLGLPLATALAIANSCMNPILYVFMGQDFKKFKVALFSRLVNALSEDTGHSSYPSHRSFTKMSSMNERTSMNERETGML
Square brackets hold non-standard residues; d marks the D form. Peptide text beside a SMILES is read from it.

// known answers, use as guide
Determine its reported max response: CC(C)C[C@H](NC(=O)[C@@H](N)Cc1ccc(O)cc1)C(=O)N1CCC[C@H]1C(=O)NCC(=O)N[C@@H](CCC(N)=O)C(=O)N[C@@H](Cc1ccc(O)cc1)C(=O)N[C@@H](C)C(=O)N[C@@H](Cc1ccccc1)C(=O)N[C@H](CO)C(=O)O [compound 81] (H-YLPGQYAF[dS]-OH; N-terminus assumed)
1,73 DF/F0

Determine its reported max response: C[C@H](NC(=O)[C@H](Cc1ccccc1)NC(=O)[C@H](CCC(N)=O)NC(=O)CNC(=O)[C@H]1CCCN1C(=O)CNC(=O)[C@@H]1CCCN1)C(=O)N[C@@H](Cc1ccccc1)C(=O)N[C@H](CO)C(=O)O [compound 97] (H-PG[dP]GQFAF[dS]-OH; N-terminus assumed)
1,72 DF/F0

---
Determine its reported max response: CC(C)C[C@H](NC(=O)[C@@H](N)Cc1ccc(O)cc1)C(=O)N1CCC[C@H]1C(=O)N[C@H](Cc1c[nH]c2ccccc12)C(=O)N[C@@H](CCC(N)=O)C(=O)N[C@@H](Cc1ccc(O)cc1)C(=O)N[C@@H](C)C(=O)N[C@@H](Cc1ccccc1)C(=O)N[C@H](Cc1ccccc1)C(=O)O [compound 127] (H-YLP[dW]QYAF[dF]-OH; N-terminus assumed)
1,52 DF/F0

====

molecular target: human CMKLR1 (Homo sapiens); construct: host or cells: HEK293A (Invitrogen), stably expressing human Gα15; assay: Ca2+ mobilization (CellLux imaging) agonist assay in HEK293A cells expressing CMKLR1 and Gα15; type: cell-based; settings: Ca2+ mobilization, CMKLR1; decimal comma; NR where no EC50 is given; read-out: EC50
Square brackets hold non-standard residues; d marks the D form. Peptide text beside a SMILES is read from it.
Value kind: EC50 (nM)
# value in nM; strip the unit string

Determine its reported EC50: C[C@H](N)C(=O)N[C@H](Cc1c[nH]c2ccccc12)C(=O)N1CCC[C@H]1C(=O)NCC(=O)N[C@@H](CCC(N)=O)C(=O)N[C@@H](Cc1ccccc1)C(=O)N[C@@H](C)C(=O)N[C@H](Cc1ccc(O)cc1)C(=O)N[C@@H](CO)C(N)=O [compound 21] (H-A[dW]PGQFA[dY]S-NH2; N-terminus assumed)
16500

Determine its reported EC50: CC(C)C[C@H](NC(=O)[C@H](Cc1ccc(O)cc1)NC(=O)[C@@H](Cc1ccccc1)NC(=O)[C@@H]1CCCN1C(=O)[C@H]1CCCN1C(=O)[C@@H]1CCCN1C(=O)[C@H](CC(C)C)NC(=O)[C@@H](N)Cc1ccc(O)cc1)C(=O)N1CCC[C@H]1C(=O)O [compound 152] (H-YLP[dP]P[dF]YLP-OH; N-terminus assumed)
302

Determine its reported EC50: CC(C)C[C@H](NC(=O)[C@@H]1CCCN1)C(=O)N1CCC[C@H]1C(=O)NCC(=O)N[C@@H](CCC(N)=O)C(=O)N[C@H](Cc1ccccc1)C(=O)N[C@@H](C)C(=O)N[C@@H](Cc1ccccc1)C(=O)N[C@@H](Cc1ccccc1)C(=O)O [compound 58] (H-PLPGQ[dF]AFF-OH; N-terminus assumed)
286

Determine its reported EC50: CC(C)[C@H](NC(=O)[C@H](N)Cc1ccc(O)cc1)C(=O)N1CCC[C@H]1C(=O)NCC(=O)N[C@@H](CCC(N)=O)C(=O)N[C@@H](Cc1ccc(O)cc1)C(=O)N[C@@H](C)C(=O)N[C@@H](Cc1ccccc1)C(=O)N[C@@H](CO)C(=O)O [compound 91] (H-[dY]VPGQYAFS-OH; N-terminus assumed)
53.6

Determine its reported EC50: CC(C)C[C@H](NC(=O)[C@@H](N)Cc1ccc(O)cc1)C(=O)N1CCC[C@H]1C(=O)N[C@H](CC(C)C)C(=O)NCC(=O)N[C@@H](Cc1ccc(O)cc1)C(=O)N[C@@H](C)C(=O)N1CCC[C@@H]1C(=O)N[C@H](Cc1ccccc1)C(=O)O [compound 151] (H-YLP[dL]GYA[dP][dF]-OH; N-terminus assumed)
298

---
Determine its reported EC50: CC(C)C[C@H](NC(=O)[C@@H](N)Cc1ccc(O)cc1)C(=O)N1CCC[C@H]1C(=O)NCC(=O)N[C@@H](CCC(N)=O)C(=O)N[C@@H](Cc1ccccc1)C(=O)N[C@H](Cc1c[nH]c2ccccc12)C(=O)N[C@@H](Cc1ccccc1)C(=O)N[C@@H](CO)C(=O)O [compound 41] (H-YLPGQF[dW]FS-OH; N-terminus assumed)
7.23

Determine its reported EC50: C[C@H](NC(=O)[C@H](Cc1ccccc1)NC(=O)[C@H](CCC(N)=O)NC(=O)CNC(=O)[C@H]1CCCN1C(=O)CNC(=O)[C@@H]1CCCN1)C(=O)N[C@@H](Cc1ccccc1)C(=O)N[C@H](CO)C(=O)O [compound 97] (H-PG[dP]GQFAF[dS]-OH; N-terminus assumed)
100
